Each recorded value in this set is attributed to patent US20090012085A1.

experiment: Phase I dose-escalating study, plasma pharmacokinetics in patients with solid tumor; type: in vivo, human; conditions: human, plasma, 25 mg, 25 mg QD 4/1 (n = 6), nominal time 72 h; read-out: Mean plasma concentration following the last dose on cycle 1 day 28
Measurement type: concentration at 72 h (ng/mL)
Reply numerically in ng/mL, unit not repeated.

Param item = Cc1[nH]c(/C=C2\C(=O)Nc3ccc(F)cc32)c(C)c1C(=O)NC[C@H](O)CN1CCOCC1 ; retrieve measured concentration at 72 h.
2.61

###

experiment: Phase I dose-escalating study, plasma pharmacokinetics in patients with solid tumor; type: in vivo, human; conditions: human, plasma, 100 mg, 100 mg QD (4/1), C2D28 (n = 4), plasma; read-out: tmax, mean (% CV)
Measurement type: Tmax (h)
Reply numerically in h, unit not repeated.

Param item = Cc1[nH]c(/C=C2\C(=O)Nc3ccc(F)cc32)c(C)c1C(=O)NC[C@H](O)CN1CCOCC1 [compound 1] ; retrieve measured Tmax.
13.5

###

assay: Phase I dose-escalating study, plasma pharmacokinetics in patients with solid tumor; assay type: in vivo, human; details: human, plasma, oral, patients with solid tumors; read-out: effective t1/2 of elimination from plasma
Measurement type: half-life

Param item = Cc1[nH]c(/C=C2\C(=O)Nc3ccc(F)cc32)c(C)c1C(=O)NC[C@H](O)CN1CCOCC1 ; retrieve measured half-life.
660 to 1140 min

###

experiment: Phase I dose-escalating study, plasma pharmacokinetics in patients with solid tumor; type: in vivo, human; conditions: human, plasma, 150 mg, 150 mg QD (4/1), C2D28 (n = 4), plasma; read-out: tmax, mean (% CV)
Measurement type: Tmax (h)
Reply numerically in h, unit not repeated.

Param item = Cc1[nH]c(/C=C2\C(=O)Nc3ccc(F)cc32)c(C)c1C(=O)NC[C@H](O)CN1CCOCC1 ; retrieve measured Tmax.
3

###

assay: Phase I dose-escalating study, plasma pharmacokinetics in patients with solid tumor; format: in vivo, human; conditions: human, plasma, 100 mg, 100 mg QD (4/1), C1D1 (n = 7), plasma; read-out: Cmax, mean (% CV)
Measurement type: Cmax (ng/mL)
Reply numerically in ng/mL, unit not repeated.

Param item = Cc1[nH]c(/C=C2\C(=O)Nc3ccc(F)cc32)c(C)c1C(=O)NC[C@H](O)CN1CCOCC1 ; retrieve measured Cmax.
270

###

experiment: Phase I dose-escalating study, plasma pharmacokinetics in patients with solid tumor; type: in vivo, human; conditions: human, plasma, 100 mg QD, 100 mg QD 4/1 (n = 6), nominal time 8 h; read-out: Mean plasma concentration following the last dose on cycle 1 day 28
Measurement type: concentration at 8 h (ng/mL)
Reply numerically in ng/mL, unit not repeated.

Param item = Cc1[nH]c(/C=C2\C(=O)Nc3ccc(F)cc32)c(C)c1C(=O)NC[C@H](O)CN1CCOCC1 ; retrieve measured concentration at 8 h.
261

###

test: Phase I dose-escalating study, plasma pharmacokinetics in patients with solid tumor; format: in vivo, human; conditions: human, plasma, 100 mg, 100 mg QD Continuous (n = 4), nominal time 24 h; read-out: Mean plasma concentration following the last dose on cycle 1 day 28
Measurement type: concentration at 24 h (ng/mL)
Reply numerically in ng/mL, unit not repeated.

Param item = Cc1[nH]c(/C=C2\C(=O)Nc3ccc(F)cc32)c(C)c1C(=O)NC[C@H](O)CN1CCOCC1 [compound 1] ; retrieve measured concentration at 24 h.
246

###

Assay: Phase I dose-escalating study, plasma pharmacokinetics in patients with solid tumor
Assay type: in vivo, human
Conditions: human, plasma, 200 mg QD, 200 mg QD 4/1 (n = 5), nominal time 6 h; read-out: Mean plasma concentration following the last dose on cycle 1 day 28
Procedure: Cmax values, or maximum total plasma concentrations, of a compound of formula 1 can be measured according to techniques well known to those skilled in the art. For example, after a compound of formula 1 has been administered to a mammal, blood samples can be taken at fixed time points over a period of time (e.g. 24 hours) and the serum or plasma concentration of compound of formula 1 can be measured using standard analytical techniques known in the art. […]
Measurement type: concentration at 6 h (ng/mL)
Reply numerically in ng/mL, unit not repeated.

Param item = Cc1[nH]c(/C=C2\C(=O)Nc3ccc(F)cc32)c(C)c1C(=O)NC[C@H](O)CN1CCOCC1 ; retrieve measured concentration at 6 h.
463

###

assay: Phase I dose-escalating study, plasma pharmacokinetics in patients with solid tumor; format: in vivo, human; details: human, plasma, 25 mg, 25 mg QD 4/1 (n = 6), nominal time 48 h; read-out: Mean plasma concentration following the last dose on cycle 1 day 28
Measurement type: concentration at 48 h (ng/mL)
Reply numerically in ng/mL, unit not repeated.

Param item = Cc1[nH]c(/C=C2\C(=O)Nc3ccc(F)cc32)c(C)c1C(=O)NC[C@H](O)CN1CCOCC1 ; retrieve measured concentration at 48 h.
6.24

###

test: Phase I dose-escalating study, plasma pharmacokinetics in patients with solid tumor; type: in vivo, human; details: human, plasma, 25 mg, 25 mg QD (4/1), C1D28 (n = 6), plasma; read-out: C(trough, 24 h), mean (% CV)
Measurement type: concentration at 24 h (µg/mL)
Reply numerically in µg/mL, unit not repeated.

Param item = Cc1[nH]c(/C=C2\C(=O)Nc3ccc(F)cc32)c(C)c1C(=O)NC[C@H](O)CN1CCOCC1 ; retrieve measured concentration at 24 h.
0.0211

###

assay: Phase I dose-escalating study, plasma pharmacokinetics in patients with solid tumor; type: in vivo, human; settings: human, plasma, 250 mg, 250 mg QD (4/1), C1D1 (n = 6), plasma; read-out: C(trough, 24 h), mean (% CV)
Measurement type: concentration at 24 h (ng/mL)
Reply numerically in ng/mL, unit not repeated.

Param item = Cc1[nH]c(/C=C2\C(=O)Nc3ccc(F)cc32)c(C)c1C(=O)NC[C@H](O)CN1CCOCC1 ; retrieve measured concentration at 24 h.
143

###

assay: Phase I dose-escalating study, plasma pharmacokinetics in patients with solid tumor; type: in vivo, human; settings: human, plasma, oral, 250 mg, 250 mg QD (4/1), C2D28 (n = 4), plasma; read-out: AUC(0-24), mean (% CV)
Measurement type: AUC(0-t) (ng·h/mL)
Reply numerically in ng·h/mL, unit not repeated.

Param item = Cc1[nH]c(/C=C2\C(=O)Nc3ccc(F)cc32)c(C)c1C(=O)NC[C@H](O)CN1CCOCC1 ; retrieve measured AUC(0-t).
9770

###

Assay: Phase I dose-escalating study, plasma pharmacokinetics in patients with solid tumor
Assay type: in vivo, human
Conditions: human, plasma, 100 mg QD, 100 mg QD Continuous (n = 4), nominal time 3 h; read-out: Mean plasma concentration following the last dose on cycle 1 day 28
Method: Cmax values, or maximum total plasma concentrations, of a compound of formula 1 can be measured according to techniques well known to those skilled in the art. For example, after a compound of formula 1 has been administered to a mammal, blood samples can be taken at fixed time points over a period of time (e.g. 24 hours) and the serum or plasma concentration of compound of formula 1 can be measured using standard analytical techniques known in the art. […]
Measurement type: concentration at 3 h (ng/mL)
Reply numerically in ng/mL, unit not repeated.

Param item = Cc1[nH]c(/C=C2\C(=O)Nc3ccc(F)cc32)c(C)c1C(=O)NC[C@H](O)CN1CCOCC1 ; retrieve measured concentration at 3 h.
460

###

test: Phase I dose-escalating study, plasma pharmacokinetics in patients with solid tumor; type: in vivo, human; conditions: human, plasma, 100 mg, 100 mg QD (continuous), C1D1 (n = 6), plasma; read-out: tmax, mean (% CV)
Measurement type: Tmax (h)
Reply numerically in h, unit not repeated.

Param item = Cc1[nH]c(/C=C2\C(=O)Nc3ccc(F)cc32)c(C)c1C(=O)NC[C@H](O)CN1CCOCC1 [compound 1] ; retrieve measured Tmax.
4.3

###

assay: Phase I dose-escalating study, plasma pharmacokinetics in patients with solid tumor; type: in vivo, human; settings: human, plasma, 150 mg, 150 mg QD (4/1), C1D1 (n = 7), plasma; read-out: tmax, mean (% CV)
Measurement type: Tmax (h)
Reply numerically in h, unit not repeated.

Param item = Cc1[nH]c(/C=C2\C(=O)Nc3ccc(F)cc32)c(C)c1C(=O)NC[C@H](O)CN1CCOCC1 ; retrieve measured Tmax.
1.6

###

assay: Phase I dose-escalating study, plasma pharmacokinetics in patients with solid tumor; format: in vivo, human; conditions: human, plasma, 200 mg, 200 mg QD 4/1 (n = 5), nominal time 0 h; read-out: Mean plasma concentration following the last dose on cycle 1 day 28
Measurement type: concentration at 0 h (ng/mL)
Reply numerically in ng/mL, unit not repeated.

Param item = Cc1[nH]c(/C=C2\C(=O)Nc3ccc(F)cc32)c(C)c1C(=O)NC[C@H](O)CN1CCOCC1 [compound 1] ; retrieve measured concentration at 0 h.
353

###

Test: Phase I dose-escalating study, plasma pharmacokinetics in patients with solid tumor
Format: in vivo, human
Settings: human, plasma, 25 mg, 25 mg QD 4/1 (n = 6), nominal time 1 h; read-out: Mean plasma concentration following the last dose on cycle 1 day 28
Protocol: Cmax values, or maximum total plasma concentrations, of a compound of formula 1 can be measured according to techniques well known to those skilled in the art. For example, after a compound of formula 1 has been administered to a mammal, blood samples can be taken at fixed time points over a period of time (e.g. 24 hours) and the serum or plasma concentration of compound of formula 1 can be measured using standard analytical techniques known in the art. […]
Measurement type: concentration at 1 h (ng/mL)
Reply numerically in ng/mL, unit not repeated.

Param item = Cc1[nH]c(/C=C2\C(=O)Nc3ccc(F)cc32)c(C)c1C(=O)NC[C@H](O)CN1CCOCC1 ; retrieve measured concentration at 1 h.
50.1
